measurement.kind: pIC50
Scale note: pIC50 = -log10(concentration in M).

query: Checklist item: pIC50 tested on cyp2b1 (Rattus norvegicus), entry `C=CC(=O)Nc1cccc(Oc2nc(Nc3ccc(N4CCN(C)CC4)c(F)c3)nc3[nH]ccc23)c1` , value?
result: 5.19

---

tested on: CYP3As; test: Inhibition of midazolam metabolism by avitinib in human liver microsomes; assay type: in vitro ADME; details: human, human liver microsomes, probe midazolam (5 μM)
measurement.kind: IC50 at 30 min (µM)
Your answer is read as µM, so omit the unit and give the number.

query: Which measured IC50 at 30 min value corresponds to `C=CC(=O)Nc1cccc(Oc2nc(Nc3ccc(N4CCN(C)CC4)c(F)c3)nc3[nH]ccc23)c1` ?
result: 59.6
